Source: ChEMBL document CHEMBL4414679

Target: Epidermal growth factor receptor (Homo sapiens, UniProt P00533)
Sequence (P00533 whole entry, the tested form may be a part): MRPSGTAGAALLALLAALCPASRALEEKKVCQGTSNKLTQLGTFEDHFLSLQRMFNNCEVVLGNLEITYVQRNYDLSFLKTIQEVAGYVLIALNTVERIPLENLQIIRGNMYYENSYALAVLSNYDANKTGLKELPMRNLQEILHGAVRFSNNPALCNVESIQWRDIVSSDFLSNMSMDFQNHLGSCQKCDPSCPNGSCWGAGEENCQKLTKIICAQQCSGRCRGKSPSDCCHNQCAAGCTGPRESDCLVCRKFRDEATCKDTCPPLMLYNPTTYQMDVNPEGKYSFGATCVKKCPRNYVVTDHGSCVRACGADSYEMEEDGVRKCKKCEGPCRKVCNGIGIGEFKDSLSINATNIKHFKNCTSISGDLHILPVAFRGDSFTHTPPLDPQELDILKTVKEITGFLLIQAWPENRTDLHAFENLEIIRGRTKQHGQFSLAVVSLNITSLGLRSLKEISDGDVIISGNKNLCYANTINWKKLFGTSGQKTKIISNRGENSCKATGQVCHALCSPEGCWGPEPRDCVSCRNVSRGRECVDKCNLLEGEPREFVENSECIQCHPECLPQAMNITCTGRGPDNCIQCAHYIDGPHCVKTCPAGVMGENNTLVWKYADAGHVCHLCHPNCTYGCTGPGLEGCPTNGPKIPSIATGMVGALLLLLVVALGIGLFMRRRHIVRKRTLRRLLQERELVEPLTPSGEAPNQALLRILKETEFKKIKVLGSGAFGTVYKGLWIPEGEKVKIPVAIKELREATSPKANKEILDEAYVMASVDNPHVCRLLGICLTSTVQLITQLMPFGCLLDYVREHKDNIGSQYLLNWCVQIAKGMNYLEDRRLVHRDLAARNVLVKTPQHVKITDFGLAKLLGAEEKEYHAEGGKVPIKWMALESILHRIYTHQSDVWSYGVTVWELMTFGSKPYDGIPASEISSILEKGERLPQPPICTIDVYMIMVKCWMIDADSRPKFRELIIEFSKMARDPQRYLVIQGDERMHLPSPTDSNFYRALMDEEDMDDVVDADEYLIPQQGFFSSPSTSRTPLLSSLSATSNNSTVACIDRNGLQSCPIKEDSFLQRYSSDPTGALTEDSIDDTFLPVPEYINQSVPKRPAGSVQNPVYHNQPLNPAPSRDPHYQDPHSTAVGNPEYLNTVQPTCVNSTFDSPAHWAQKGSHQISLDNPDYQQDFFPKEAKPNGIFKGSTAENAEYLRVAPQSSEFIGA
Experiment: Inhibition of N-terminal GST-tagged human EGFR cytoplasmic domain (669-1210 AA) expressed in baculovirus at 10 uM using FAM-labelled peptide as substrate pre-incubated for 10 mins followed by substrate addition by mobility shift assay relative to control
Respond with MET for inhibition values of 50% and above, NOT MET for values below.

Ask: Check if inhibition >= 50% (inclusive). Item: COc1cc(Nc2cc(NC(=O)Nc3c(Cl)cccc3Cl)ncn2)cc(OC)c1
Reply: MET

Ask: Check if inhibition >= 50% (inclusive). Item: COc1cc(NC(=O)Nc2cc(Nc3cc(C(F)(F)F)ccc3OC)ncn2)cc(OC)c1
Reply: MET

Ask: Check if inhibition >= 50% (inclusive). Item: COc1cc(NC(=O)Nc2cc(Nc3cc(OC)cc(C(F)(F)F)c3)ncn2)cc(OC)c1
Reply: NOT MET

Ask: Check if inhibition >= 50% (inclusive). Item: CCc1ccc(Nc2cc(NC(=O)Nc3c(Cl)cccc3Cl)ncn2)cc1
Reply: MET

Ask: Check if inhibition >= 50% (inclusive). Item: COc1cc(NC(=O)Nc2cc(Nc3cccc(C(C)(C)C)c3)ncn2)cc(OC)c1
Reply: NOT MET

Ask: Check if inhibition >= 50% (inclusive). Item: COc1cc(NC(=O)Nc2cc(Nc3cc(F)ccc3OC)ncn2)cc(OC)c1
Reply: NOT MET

Ask: Check if inhibition >= 50% (inclusive). Item: COc1ccc(Br)cc1Nc1cc(NC(=O)Nc2c(Cl)cccc2Cl)ncn1
Reply: MET

Ask: Check if inhibition >= 50% (inclusive). Item: O=C(Nc1cc(Nc2ccc(F)c(Cl)c2)ncn1)Nc1c(Cl)cccc1Cl
Reply: MET

Ask: Check if inhibition >= 50% (inclusive). Item: COc1cc(NC(=O)Nc2cc(Nc3ccc(F)c(Cl)c3)ncn2)cc(OC)c1
Reply: NOT MET

Ask: Check if inhibition >= 50% (inclusive). Item: CC(C)(C)c1ccc(Nc2cc(NC(=O)Nc3c(Cl)cccc3Cl)ncn2)cc1
Reply: NOT MET

Ask: Check if inhibition >= 50% (inclusive). Item: COc1ccc(C(F)(F)F)cc1Nc1cc(NC(=O)Nc2c(Cl)cccc2Cl)ncn1
Reply: MET
